- target_of_assay: corticotropin releasing factor 1 receptor
- measurement_protocol: cell-based or functional assay
Ends that are not written are not given here.
quantity_name: CRF1R EC50

Q: Entry ZGPPISIDLPEYLLRKMIEIEKQEKEKQQAANNRLLLDTI (C-terminal amide) [SEQ ID NO 48] : reported CRF1R EC50 = ?
Result: 1000 nM

Q: Entry IVLSLDVPIGLLQILLEQTKARAAREQATTNARILARV-NH2 [SEQ ID NO 129] : reported CRF1R EC50 = ?
Result: > 100 nM

Q: Entry ZGPPISIDLPFQLLRKMIEIEKQEKEKQQATTNRLLLDRV (C-terminal amide) [SEQ ID NO 18] : reported CRF1R EC50 = ?
Result: 106 nM

Q: Entry ZGPPISIDLPIALLRKMIEIEKQEKEKQQAANNRLLLDTI (C-terminal amide) [SEQ ID NO 47] : reported CRF1R EC50 = ?
Result: 1000 nM

Q: Entry ZGPPISIDLPTFLLRKMIEIEKQEKEKQQAANNRLLLDTI (C-terminal amide) [SEQ ID NO 44] : reported CRF1R EC50 = ?
Result: 944 nM

Q: Entry ZGPPISIDLPTALLRKMIEIEKQEKEKQQAANNRLLLDTI (C-terminal amide) [SEQ ID NO 61] : reported CRF1R EC50 = ?
Result: > 100 nM
